System tested: 5-HT6 receptor (Homo sapiens)
Sequence (P50406 whole entry): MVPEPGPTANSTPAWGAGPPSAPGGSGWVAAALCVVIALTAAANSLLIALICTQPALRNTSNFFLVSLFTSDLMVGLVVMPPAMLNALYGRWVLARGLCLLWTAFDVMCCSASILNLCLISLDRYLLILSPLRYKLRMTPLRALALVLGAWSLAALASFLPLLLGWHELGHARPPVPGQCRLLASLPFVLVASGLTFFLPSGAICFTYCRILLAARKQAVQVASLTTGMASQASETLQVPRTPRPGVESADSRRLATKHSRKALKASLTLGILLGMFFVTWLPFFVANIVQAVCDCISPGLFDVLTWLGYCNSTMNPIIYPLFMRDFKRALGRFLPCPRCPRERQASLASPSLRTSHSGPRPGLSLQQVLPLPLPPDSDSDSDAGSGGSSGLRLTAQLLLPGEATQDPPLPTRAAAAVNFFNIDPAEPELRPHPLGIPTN
Procedure text: CHO-human-5HT6-Aequorin functional assay (ago-/antagonism)
Run parameters: agonist effect; CHO-human-5HT6-Aequorin cells; test concentration not given
Rule: % inhibition of control agonist response below 3% gives Y. Equal to or above 3% gives N.

Take a look at these entries with their results.
Compound	System tested	Class
COc1cccc(S(=O)(=O)n2ccc3c(NC4CCNC4)nc4ccccc4c32)c1 (stereo not drawn)	5-HT6 receptor (Homo sapiens)	N
Cc1c(S(=O)(=O)n2ccc3c(N4CCNCC4)nc4ccccc4c32)sc2ccc(Cl)cc12	5-HT6 receptor (Homo sapiens)	Y
O=S(=O)(c1cccc(Cl)c1)n1ccc2c(N3CCOCC3)nc3ccccc3c21	5-HT6 receptor (Homo sapiens)	N
O=S(=O)(c1cccc(Cl)c1)n1ccc2c(N3CCCCC3)nc3ccccc3c21	5-HT6 receptor (Homo sapiens)	N
CN1CCN(c2nc3ccccc3c3c2ccn3S(=O)(=O)c2ccc(N)cc2)CC1	5-HT6 receptor (Homo sapiens)	Y

Switching to the query record.
Inquiry: Please let me know if N#Cc1cccc(S(=O)(=O)n2ccc3c(N4CCNCC4)nc4ccccc4c32)c1 shows % inhibition of control agonist response below 3%.
Reply text: N

###

System tested: UniProtKB P50406
Procedure text: Radioligand binding, 5-HT6 ([3H]-LSD displacement)
Quick reference: Ki of the listed items.
Give just the numeric value; nM need not be written.

Molecule	Observed property	Units label	Quantitative readout
O=S(=O)(c1ccc(F)cc1)n1ccc2c(NC3CCNC3)nc3ccccc3c21 (stereo not shown)	Ki	nM	18
O=S(=O)(c1ccccc1)n1ccc2c(NC3CCNC3)nc3ccccc3c21 (stereo not shown)	Ki	nM	4
COc1cccc(S(=O)(=O)n2ccc3c(NC4CCNC4)nc4ccccc4c32)c1 (stereo not shown)	Ki	nM	6

Next up:
Inquiry: # get_value(readout='Ki', item= O=S(=O)(c1cc(F)ccc1F)n1ccc2c(NC3CCNC3)nc3ccccc3c21 (stereo not shown) )
Reply text: 9

###

System tested: dopamine D2L receptor (Homo sapiens, UniProt P14416)
Sequence (P14416 whole entry): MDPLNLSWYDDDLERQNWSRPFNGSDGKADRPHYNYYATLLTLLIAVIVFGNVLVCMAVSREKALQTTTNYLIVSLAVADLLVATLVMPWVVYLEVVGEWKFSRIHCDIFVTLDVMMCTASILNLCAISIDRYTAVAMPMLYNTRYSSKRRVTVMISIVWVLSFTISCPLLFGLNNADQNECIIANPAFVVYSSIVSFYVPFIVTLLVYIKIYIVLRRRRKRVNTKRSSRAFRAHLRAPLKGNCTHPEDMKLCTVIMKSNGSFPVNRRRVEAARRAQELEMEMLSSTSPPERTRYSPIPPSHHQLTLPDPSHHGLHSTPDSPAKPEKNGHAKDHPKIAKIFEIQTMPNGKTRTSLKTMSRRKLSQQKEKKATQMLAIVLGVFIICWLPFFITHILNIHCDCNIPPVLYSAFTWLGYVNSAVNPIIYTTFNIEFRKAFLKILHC
Procedure text: Radioligand binding, D2 ([3H]-raclopride displacement)
Quick reference: pKi of the listed items.
Reminder that pKi is minus the log10 of a molar concentration.

Example compounds with recorded pKi:
Compound	Observed property	Quantitative readout
O=S(=O)(c1cccc(Cl)c1)n1ccc2c(N[C@H]3CCNC3)nc3ccccc3c21 [Compound 6]	pKi	5.99
O=S(=O)(c1cccc(F)c1)n1ccc2c(NC3CCNC3)nc3ccccc3c21 (centres unmarked) [Compound 8]	pKi	6.05
O=S(=O)(c1cccc(Cl)c1)n1ccc2c(NC3CCNC3)nc3ccccc3c21 (centres unmarked) [Compound 5]	pKi	5.84
O=S(=O)(c1cccc2cccnc12)n1ccc2c(N3CCOCC3)nc3ccccc3c21 [Compound 79]	pKi	5.91

Next up:
Inquiry: # get_value(readout='pKi', item= CN1CCN(c2nc3ccccc3c3c2ccn3S(=O)(=O)c2cccc(Cl)c2)CC1 [Compound 54] )
Reply text: 5.90

###

Quick reference: pKi of the listed items.
System tested: 5-HT7 receptor (Homo sapiens, UniProt P34969)
Sequence (P34969 1-432 limits assumed): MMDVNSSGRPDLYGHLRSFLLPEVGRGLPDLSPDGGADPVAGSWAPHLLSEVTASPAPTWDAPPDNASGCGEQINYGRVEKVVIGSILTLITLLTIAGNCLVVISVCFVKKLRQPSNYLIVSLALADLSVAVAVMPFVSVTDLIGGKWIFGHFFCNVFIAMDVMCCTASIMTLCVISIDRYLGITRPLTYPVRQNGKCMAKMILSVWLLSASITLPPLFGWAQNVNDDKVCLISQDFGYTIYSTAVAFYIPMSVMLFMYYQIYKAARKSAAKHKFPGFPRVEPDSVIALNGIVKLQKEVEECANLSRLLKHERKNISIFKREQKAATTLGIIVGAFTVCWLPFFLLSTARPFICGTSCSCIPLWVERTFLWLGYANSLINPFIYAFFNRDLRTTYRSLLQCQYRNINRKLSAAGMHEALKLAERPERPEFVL
Procedure text: Radioligand binding, 5-HT7 ([3H]-5-CT displacement)
Reminder that pKi is minus the log10 of a molar concentration.

Inquiry: # get_value(readout='pKi', item= O=S(=O)(c1cc(F)ccc1F)n1ccc2c(N3CCNCC3)nc3ccccc3c21 )
Reply text: 5.11

Inquiry: # get_value(readout='pKi', item= O=S(=O)(c1cccc(Cl)c1)n1ccc2c(N3CCCCC3)nc3ccccc3c21 )
Reply text: 4.65

Inquiry: # get_value(readout='pKi', item= O=S(=O)(c1cccc(C(F)(F)F)c1)n1ccc2c(N3CCNCC3)nc3ccccc3c21 )
Reply text: 5.19

Inquiry: # get_value(readout='pKi', item= COc1cccc(S(=O)(=O)n2ccc3c(N4CCNCC4)nc4ccccc4c32)c1 )
Reply text: 5.28

Inquiry: # get_value(readout='pKi', item= CC(C)(C)c1ccc(S(=O)(=O)n2ccc3c(NC4CCNC4)nc4ccccc4c32)cc1 (centres unmarked) )
Reply text: 5.89

Inquiry: # get_value(readout='pKi', item= Cc1ccc2sc(S(=O)(=O)n3ccc4c(NC5CCNC5)nc5ccccc5c43)cc2c1 (centres unmarked) )
Reply text: 5.88

All values here come from patent US20170239237A1.
